Tested on: SYO-1 tumor spheroids, viability % test/control
ASSAY NOTES: Anticancer human tumor SYO-1 cell line growth inhibition
CONDITION DESCRIPTION: second compound 0.00949 µM; first compound 10 µM; active compounds read low; spheroids with HUVEC and MSC
REPORTED METRIC: viability, T/C (%)

CC1COCCN1c1cc(-c2ccnn2C)c2ccnc(-c3ccn[nH]3)c2n1 (stereo unspecified) + CC[C@@]1(O)C(=O)OCc2c1cc1n(c2=O)Cc2cc3c(CN(C)C)c(O)ccc3nc2-1
0.42
COc1cc(C)[nH]c(=O)c1CN1CCc2c(Cl)cc(C(OC)C3COC3)c(Cl)c2C1=O (stereo unspecified) + CC[C@@]1(O)C(=O)OCc2c1cc1n(c2=O)Cc2cc3c(CN(C)C)c(O)ccc3nc2-1
4.94
[2H]c1nc(C)nc([2H])c1-c1cc(NC[C@@H](C)c2cccc3c(C(=O)NC)ccnc23)ncn1 + CC[C@@]1(O)C(=O)OCc2c1cc1n(c2=O)Cc2cc3c(CN(C)C)c(O)ccc3nc2-1
17.2
CC(C)n1c(=O)n(C)c2cnc3cc(F)c(-c4ccc(OCCCN5CCCCC5)nc4)cc3c21 + CC[C@@]1(O)C(=O)OCc2c1cc1n(c2=O)Cc2cc3c(CN(C)C)c(O)ccc3nc2-1
0.3
COc1ccc([C@@H](O)c2cc(-c3ncnc4cc(N5CCOCC5)ccc34)c(F)cc2Cl)nn1 + CC[C@@]1(O)C(=O)OCc2c1cc1n(c2=O)Cc2cc3c(CN(C)C)c(O)ccc3nc2-1
0.79
Cc1cc(C)c(CNC(=O)c2cc(-c3ccc(CN4CCOCC4)cc3)cc3c2cnn3C2CCCC2)c(=O)[nH]1 + CC[C@@]1(O)C(=O)OCc2c1cc1n(c2=O)Cc2cc3c(CN(C)C)c(O)ccc3nc2-1
3.78

* * *

System: SYO-1 tumor spheroids, viability % test/control
ASSAY NOTES: Anticancer human tumor SYO-1 cell line growth inhibition; active = viability on the fitted dose curve at most 10% of control; inactive = the rest;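 note: spheroids exposed to agents for 7 days before viability read; 100% = DMSO vehicle control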
CONDITION DESCRIPTION: second compound 0.0003 µM; first compound 0.0316 µM; spheroids with HUVEC and MSC
Description: Multicellular complex tumor spheroid response to DNA repair inhibitors in combination with DNA-damaging drugs This study explores the anticancer activities of DNA-damaging drugs and inhibitors of DNA damage repair, both as single agents and in combinations. […] Twenty-six patient-derived or established malignant cell lines were evaluated representing sarcoma, melanoma, small cell lung cancer (SCLC), non-small cell lung cancer (NSCLC), as well as bladder, ovarian and pancreatic cancers. […]
Classes used: yes (1) for active, no (0) for inactive

COc1ccc([C@@H](O)c2cc(-c3ncnc4cc(N5CCOCC5)ccc34)c(F)cc2Cl)nn1 + COc1cc2c(cc1O)CCNC21CSC2c3c(OC(C)=O)c(C)c4c(c3C(COC1=O)N1C(O)C3Cc5cc(C)c(OC)c(O)c5C(C21)N3C)OCO4
no (0)
[2H]c1nc(C)nc([2H])c1-c1cc(NC[C@@H](C)c2cccc3c(C(=O)NC)ccnc23)ncn1 + COc1cc2c(cc1O)CCNC21CSC2c3c(OC(C)=O)c(C)c4c(c3C(COC1=O)N1C(O)C3Cc5cc(C)c(OC)c(O)c5C(C21)N3C)OCO4
no (0)
COc1cc(C)[nH]c(=O)c1CN1CCc2c(Cl)cc(C(OC)C3COC3)c(Cl)c2C1=O (stereo unspecified) + COc1cc2c(cc1O)CCNC21CSC2c3c(OC(C)=O)c(C)c4c(c3C(COC1=O)N1C(O)C3Cc5cc(C)c(OC)c(O)c5C(C21)N3C)OCO4
yes (1)
CC1COCCN1c1cc(-c2ccnn2C)c2ccnc(-c3ccn[nH]3)c2n1 (stereo unspecified) + COc1cc2c(cc1O)CCNC21CSC2c3c(OC(C)=O)c(C)c4c(c3C(COC1=O)N1C(O)C3Cc5cc(C)c(OC)c(O)c5C(C21)N3C)OCO4
yes (1)
Cc1cc(C)c(CNC(=O)c2cc(-c3ccc(CN4CCOCC4)cc3)cc3c2cnn3C2CCCC2)c(=O)[nH]1 + COc1cc2c(cc1O)CCNC21CSC2c3c(OC(C)=O)c(C)c4c(c3C(COC1=O)N1C(O)C3Cc5cc(C)c(OC)c(O)c5C(C21)N3C)OCO4
no (0)
CC(C)n1c(=O)n(C)c2cnc3cc(F)c(-c4ccc(OCCCN5CCCCC5)nc4)cc3c21 + COc1cc2c(cc1O)CCNC21CSC2c3c(OC(C)=O)c(C)c4c(c3C(COC1=O)N1C(O)C3Cc5cc(C)c(OC)c(O)c5C(C21)N3C)OCO4
yes (1)

* * *

As shown below, each of these compounds has a reported viability, T/C value.
Test system: SYO-1 tumor spheroids, viability % test/control
ASSAY NOTES: Anticancer human tumor SYO-1 cell line growth inhibition;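 note: spheroids exposed to agents for 7 days before viability read; 100% = DMSO vehicle control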
CONDITION DESCRIPTION: second compound 0.000949 µM; first compound 0.0949 µM; active compounds read low; spheroids with HUVEC and MSC
REPORTED METRIC: viability, T/C

Cn1ncnc1[C@H]1c2n[nH]c(=O)c3cc(F)cc(c23)N[C@@H]1c1ccc(F)cc1 + COc1cc2c(cc1O)CCNC21CSC2c3c(OC(C)=O)c(C)c4c(c3C(COC1=O)N1C(O)C3Cc5cc(C)c(OC)c(O)c5C(C21)N3C)OCO4
0.78%
O=C(c1cc(Cc2n[nH]c(=O)c3ccccc23)ccc1F)N1CCN(C(=O)C2CC2)CC1 + COc1cc2c(cc1O)CCNC21CSC2c3c(OC(C)=O)c(C)c4c(c3C(COC1=O)N1C(O)C3Cc5cc(C)c(OC)c(O)c5C(C21)N3C)OCO4
0.91%
Cc1sc2c(c1C)C(c1ccc(Cl)cc1)=NC(CC(=O)Nc1ccc(O)cc1)c1nnc(C)n1-2 (centres undefined) + COc1cc2c(cc1O)CCNC21CSC2c3c(OC(C)=O)c(C)c4c(c3C(COC1=O)N1C(O)C3Cc5cc(C)c(OC)c(O)c5C(C21)N3C)OCO4
0.51%
CNCc1ccc(-c2cc(-c3nc(-c4ccc(S(=O)(=O)C(C)C)cc4)cnc3N)on2)cc1 + COc1cc2c(cc1O)CCNC21CSC2c3c(OC(C)=O)c(C)c4c(c3C(COC1=O)N1C(O)C3Cc5cc(C)c(OC)c(O)c5C(C21)N3C)OCO4
1.43%

* * *

Test system: SYO-1 tumor spheroids, viability % test/control
ASSAY NOTES: Anticancer human tumor SYO-1 cell line growth inhibition;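 note: spheroids exposed to agents for 7 days before viability read; 100% = DMSO vehicle control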
CONDITION DESCRIPTION: second compound 0.000949 µM; first compound 0.3 µM; active compounds read low; spheroids with HUVEC and MSC
Reported viability, T/C by item:
REPORTED METRIC: viability, T/C (%)

CNCc1ccc(-c2cc(-c3nc(-c4ccc(S(=O)(=O)C(C)C)cc4)cnc3N)on2)cc1 + COc1cc2c(cc1O)CCNC21CSC2c3c(OC(C)=O)c(C)c4c(c3C(COC1=O)N1C(O)C3Cc5cc(C)c(OC)c(O)c5C(C21)N3C)OCO4
0.42
Cc1sc2c(c1C)C(c1ccc(Cl)cc1)=NC(CC(=O)Nc1ccc(O)cc1)c1nnc(C)n1-2 (centres undefined) + COc1cc2c(cc1O)CCNC21CSC2c3c(OC(C)=O)c(C)c4c(c3C(COC1=O)N1C(O)C3Cc5cc(C)c(OC)c(O)c5C(C21)N3C)OCO4
0.24
Cn1ncnc1[C@H]1c2n[nH]c(=O)c3cc(F)cc(c23)N[C@@H]1c1ccc(F)cc1 + COc1cc2c(cc1O)CCNC21CSC2c3c(OC(C)=O)c(C)c4c(c3C(COC1=O)N1C(O)C3Cc5cc(C)c(OC)c(O)c5C(C21)N3C)OCO4
0.83
O=C(c1cc(Cc2n[nH]c(=O)c3ccccc23)ccc1F)N1CCN(C(=O)C2CC2)CC1 + COc1cc2c(cc1O)CCNC21CSC2c3c(OC(C)=O)c(C)c4c(c3C(COC1=O)N1C(O)C3Cc5cc(C)c(OC)c(O)c5C(C21)N3C)OCO4
0.86

* * *

# Lookup of reported viability, T/C keyed by entry
Tested on: SYO-1 tumor spheroids, viability % test/control
ASSAY NOTES: Anticancer human tumor SYO-1 cell line growth inhibition;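 note: spheroids exposed to agents for 7 days before viability read; 100% = DMSO vehicle control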
CONDITION DESCRIPTION: second compound 0.3 µM; first compound 0.0949 µM; active compounds read low; spheroids with HUVEC and MSC
REPORTED METRIC: viability, T/C (%)

CNCc1ccc(-c2cc(-c3nc(-c4ccc(S(=O)(=O)C(C)C)cc4)cnc3N)on2)cc1 + CC[C@@]1(O)C(=O)OCc2c1cc1n(c2=O)Cc2cc3c(CN(C)C)c(O)ccc3nc2-1
1.95
O=C(c1cc(Cc2n[nH]c(=O)c3ccccc23)ccc1F)N1CCN(C(=O)C2CC2)CC1 + CC[C@@]1(O)C(=O)OCc2c1cc1n(c2=O)Cc2cc3c(CN(C)C)c(O)ccc3nc2-1
2.04
Cn1ncnc1[C@H]1c2n[nH]c(=O)c3cc(F)cc(c23)N[C@@H]1c1ccc(F)cc1 + CC[C@@]1(O)C(=O)OCc2c1cc1n(c2=O)Cc2cc3c(CN(C)C)c(O)ccc3nc2-1
1.52
Cc1sc2c(c1C)C(c1ccc(Cl)cc1)=NC(CC(=O)Nc1ccc(O)cc1)c1nnc(C)n1-2 (centres undefined) + CC[C@@]1(O)C(=O)OCc2c1cc1n(c2=O)Cc2cc3c(CN(C)C)c(O)ccc3nc2-1
1.05
